molecular target: PLK1 (Homo sapiens, UniProt P53350); construct: endogenous in cells; host or cells: HeLa LgBit (PLK1-HiBit KI): HeLa cells stably expressing LgBit, with CRISPR/Cas9 knock-in of HiBit at the endogenous PLK1 locus; test: Luciferase assay for PLK1 in HeLa LgBit (PLK1-HiBit KI) cell line; type: cell-based; conditions: released after thymidine block, compound 300 nM, luminescence after 9 hours
Sequence (P53350 whole entry): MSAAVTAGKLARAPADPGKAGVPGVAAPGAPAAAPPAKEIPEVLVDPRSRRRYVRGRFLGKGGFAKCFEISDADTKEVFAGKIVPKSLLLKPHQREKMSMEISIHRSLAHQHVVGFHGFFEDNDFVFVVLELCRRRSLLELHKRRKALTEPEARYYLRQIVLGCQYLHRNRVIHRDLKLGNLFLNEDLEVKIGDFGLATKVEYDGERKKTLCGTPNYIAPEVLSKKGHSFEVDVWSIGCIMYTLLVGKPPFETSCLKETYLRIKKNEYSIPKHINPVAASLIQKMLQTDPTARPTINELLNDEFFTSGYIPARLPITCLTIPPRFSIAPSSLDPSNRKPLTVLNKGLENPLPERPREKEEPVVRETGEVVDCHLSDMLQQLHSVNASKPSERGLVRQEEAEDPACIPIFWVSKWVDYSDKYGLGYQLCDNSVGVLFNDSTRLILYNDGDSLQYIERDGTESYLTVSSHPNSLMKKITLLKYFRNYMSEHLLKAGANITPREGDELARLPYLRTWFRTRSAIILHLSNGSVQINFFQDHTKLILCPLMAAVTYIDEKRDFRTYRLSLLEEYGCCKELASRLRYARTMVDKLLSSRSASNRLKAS
observable: Value (luminescence value, PLK1-HiBit)
Just the number, please, no unit attached.

Ask: Give the reported Value (luminescence value, PLK1-HiBit) for CC[C@@H]1C(=O)N(C)c2cnc(Nc3ccc(C(=O)NC4CCC(N5CCN(CCNc6cccc7c6CN(C6CCC(=O)NC6=O)C7=O)CC5)CC4)cc3OC)nc2N1C1CCCC1 (some centres unmarked) [Compound 5] (system: PLK1 (Homo sapiens, UniProt P53350)).
Reply: 0.376

Ask: Give the reported Value (luminescence value, PLK1-HiBit) for CC[C@@H]1C(=O)N(C)c2cnc(Nc3ccc(C(=O)NC4CCC(N5CCN(CCc6ccc(C7CCC(=O)NC7=O)cc6)CC5)CC4)cc3OC)nc2N1C1CCCC1 (some centres unmarked) [Compound 20] (system: PLK1 (Homo sapiens, UniProt P53350)).
Reply: 0.154

Ask: Give the reported Value (luminescence value, PLK1-HiBit) for CC[C@@H]1C(=O)N(C)c2cnc(Nc3ccc(C(=O)NC4CCC(N5CCN(CCNc6ccc(C7CCC(=O)NC7=O)cc6)CC5)CC4)cc3OC)nc2N1C1CCCC1 (some centres unmarked) [Compound 1] (system: PLK1 (Homo sapiens, UniProt P53350)).
Reply: 0.139

Ask: Give the reported Value (luminescence value, PLK1-HiBit) for CC[C@@H]1C(=O)N(C)c2cnc(Nc3ccc(C(=O)NC4CCC(N5CCC(CNc6ccc(C7CCC(=O)NC7=O)cc6)CC5)CC4)cc3OC)nc2N1C1CCCC1 (some centres unmarked) [Compound 2] (system: PLK1 (Homo sapiens, UniProt P53350)).
Reply: 0.129

Ask: Give the reported Value (luminescence value, PLK1-HiBit) for COc1cc(C(=O)NCC2CCN(CC3CCN(c4ccc(C5CCC(=O)NC5=O)cc4)CC3)CC2)ccc1Nc1ncc2c(n1)N(C1CCCC1)CC(F)(F)C(=O)N2C (centres unmarked) [Compound 27] (system: PLK1 (Homo sapiens, UniProt P53350)).
Reply: 0.295

* * *

system: NCI-H69 (H69) cell line; assay: Cell viability assay for NCI-H69 cell line; format: cell-based; details: Homo sapiens, NCI-H69, 120 h, 5 days, EZ-Cytox, 0.46-3000 nM
observable: IC50

Ask: Please give the measured IC50 for this compound: CC[C@@H]1C(=O)N(C)c2cnc(Nc3ccc(C(=O)NN4CCC(C(N)CN5CCN(c6ccc(C7CCC(=O)NC7=O)cc6F)CC5)CC4)cc3OC)nc2N1C1CCCC1 (some centres unmarked)
Reply: ≤ 50 nM

Ask: Please give the measured IC50 for this compound: COc1cc(C(=O)NCC2CCN(CC3CCN(c4ccc(C5CCC(=O)NC5=O)cc4)CC3)CC2)ccc1Nc1ncc2c(n1)N(C1CCCC1)CC(F)(F)C(=O)N2C (centres unmarked)
Reply: ≤ 50 nM

Ask: Please give the measured IC50 for this compound: CC[C@@H]1C(=O)N(C)c2cnc(Nc3ccc(C(=O)NC4CCN(C5CCN(CCc6ccc(C7CCC(=O)NC7=O)cc6)CC5)CC4)cc3OC)nc2N1C1CCCC1 (some centres unmarked)
Reply: ≤ 50 nM

Ask: Please give the measured IC50 for this compound: CC[C@@H]1C(=O)N(C)c2cnc(Nc3ccc(C(=O)NC4CCC(NCC5CCN(c6ccc(C7CCC(=O)NC7=O)cc6F)CC5)CC4)cc3OC)nc2N1C1CCCC1 (some centres unmarked)
Reply: < 20 nM

Ask: Please give the measured IC50 for this compound: COc1cc(C(=O)NC2CCC(NCC3CCN(c4ccc(C5CCC(=O)NC5=O)cc4F)CC3)CC2)ccc1Nc1ncc2c(n1)N(C1CCCC1)CC(F)(F)C(=O)N2C (centres unmarked)
Reply: ≤ 50 nM

Where do the numbers come from? From patent US20260199367A1.
